Reference source for all entries: PubChem BioAssay (EPA / NIEHS)

TESTED ON: Nuclear respiratory factor 1 (Homo sapiens) (UniProt Q16656)
Sequence (Q16656 whole entry, looked up): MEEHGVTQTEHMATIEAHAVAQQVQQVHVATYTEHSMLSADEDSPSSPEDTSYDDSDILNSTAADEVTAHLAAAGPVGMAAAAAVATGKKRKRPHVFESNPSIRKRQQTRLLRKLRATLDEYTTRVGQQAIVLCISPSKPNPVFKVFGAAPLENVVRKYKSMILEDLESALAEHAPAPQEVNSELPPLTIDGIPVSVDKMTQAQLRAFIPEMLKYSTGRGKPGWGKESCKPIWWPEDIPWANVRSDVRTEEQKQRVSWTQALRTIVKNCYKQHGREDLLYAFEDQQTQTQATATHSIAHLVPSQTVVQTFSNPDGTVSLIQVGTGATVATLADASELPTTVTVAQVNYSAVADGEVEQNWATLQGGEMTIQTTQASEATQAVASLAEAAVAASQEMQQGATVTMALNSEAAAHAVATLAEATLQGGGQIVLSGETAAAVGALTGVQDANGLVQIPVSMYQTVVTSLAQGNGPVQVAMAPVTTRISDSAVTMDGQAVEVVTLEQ
METHOD NOTES: ATG_NRF1_CIS: Attagene CIS-FACTORIAL HepG2 Assay for human Nuclear Respiratory Factor 1 (NRF1) Orphan Gene (AID 2282987)
CONDITION LABEL: HepG2 NRF1 cis-element reporter, Attagene multiplex; actives raise or lower the signal
Active and inactive are the calls of the source. The calls were made as follows: active = hit-call score of the fitted dose curve at least 0.9, where 1 is the maximum; inactive = score below 0.9.
Labels: class 1 = active, class 0 = inactive

MOLECULE: CC(C)(C)c1ccccc1O
CLASS: class 1
//
MOLECULE: CC(C)(c1ccccc1)c1cc(-n2nc3ccccc3n2)c(O)c(C(C)(C)c2ccccc2)c1
CLASS: class 0
//
MOLECULE: CCOP(=O)(OCC)SCCSCC
CLASS: class 0
//
MOLECULE: O=C(NC(=O)c1c(F)cccc1F)Nc1cc(Cl)c(OC(F)(F)C(F)C(F)(F)F)cc1Cl (stereo not given)
CLASS: class 0
//
MOLECULE: ClCCCCl
CLASS: class 0
//
MOLECULE: Oc1c(Br)cc(Br)cc1Br
CLASS: class 0
//
MOLECULE: C=CCN=C=S
CLASS: class 0
//
MOLECULE: O=CCCl
CLASS: class 1
//
MOLECULE: CC(C)(C1CCC(O)CC1)C1CCC(O)CC1 (stereo not given)
CLASS: class 0
//
MOLECULE: O=C(CBr)c1ccc(O)cc1
CLASS: class 0
//
MOLECULE: Nc1ncn[nH]1
CLASS: class 0
//
MOLECULE: CCOP(=S)(OCC)OP(=S)(OCC)OCC
CLASS: class 0
//
MOLECULE: c1ccc2c(c1)Oc1ccccc1O2
CLASS: class 0
//
MOLECULE: N#Cc1ccncc1
CLASS: class 0
//
MOLECULE: C=CCOC(N)=O
CLASS: class 0
//
MOLECULE: Nc1cccnc1
CLASS: class 0
//
MOLECULE: O=C(O)C1(c2ccc3c(c2)OC[C@H](Cc2ccc(-c4ccccc4)cc2)[C@H]3O)CCCC1
CLASS: class 0
//
MOLECULE: COCCl
CLASS: class 0
//
MOLECULE: CC(C)[C@@H](Nc1ccc(C(F)(F)F)cc1Cl)C(=O)OC(C#N)c1cccc(Oc2ccccc2)c1 (stereo not given in full)
CLASS: class 0
//
MOLECULE: O=[N+]([O-])c1ccc(Nc2ccccc2)cc1
CLASS: class 0
//
MOLECULE: N#Cc1cccnc1
CLASS: class 0
//
MOLECULE: O=C(O)COc1cc(Cl)c(Cl)cc1Cl
CLASS: class 0
//
MOLECULE: OC(c1ccc(Cl)cc1)(c1ccc(Cl)cc1)c1cccnc1
CLASS: class 0
//
MOLECULE: Clc1cc(C(Cl)(Cl)Cl)cnc1Cl
CLASS: class 0
//
MOLECULE: Oc1ccc(Cc2ccc(O)cc2)cc1
CLASS: class 0
//
MOLECULE: CN(N=O)C(N)=O
CLASS: class 0
//
MOLECULE: OC[C@@H](O)[C@H]1O[C@@H]2O[C@H](C(Cl)(Cl)Cl)O[C@@H]2[C@H]1O
CLASS: class 0
//
MOLECULE: C[N+](C)(C)Cc1ccccc1
CLASS: class 0
//
MOLECULE: CC(F)(F)CC(F)(F)F
CLASS: class 0
//
MOLECULE: CC(c1ccc(O)cc1)c1ccc(O)cc1
CLASS: class 0
